# SYSTEM: APN (Microsomal Leucine aminopeptidase from porcine kidney EC 3.4.11.2) (Sus scrofa, UniProt P15145)
# Construct: Microsomal Leucine aminopeptidase from porcine kidney EC 3.4.11.2, Type IV-S, ammonium sulfate suspension; purchased Sigma-Aldrich; host or cells: porcine kidney (tissue-derived, microsomal)
# Sequence (P15145 whole entry): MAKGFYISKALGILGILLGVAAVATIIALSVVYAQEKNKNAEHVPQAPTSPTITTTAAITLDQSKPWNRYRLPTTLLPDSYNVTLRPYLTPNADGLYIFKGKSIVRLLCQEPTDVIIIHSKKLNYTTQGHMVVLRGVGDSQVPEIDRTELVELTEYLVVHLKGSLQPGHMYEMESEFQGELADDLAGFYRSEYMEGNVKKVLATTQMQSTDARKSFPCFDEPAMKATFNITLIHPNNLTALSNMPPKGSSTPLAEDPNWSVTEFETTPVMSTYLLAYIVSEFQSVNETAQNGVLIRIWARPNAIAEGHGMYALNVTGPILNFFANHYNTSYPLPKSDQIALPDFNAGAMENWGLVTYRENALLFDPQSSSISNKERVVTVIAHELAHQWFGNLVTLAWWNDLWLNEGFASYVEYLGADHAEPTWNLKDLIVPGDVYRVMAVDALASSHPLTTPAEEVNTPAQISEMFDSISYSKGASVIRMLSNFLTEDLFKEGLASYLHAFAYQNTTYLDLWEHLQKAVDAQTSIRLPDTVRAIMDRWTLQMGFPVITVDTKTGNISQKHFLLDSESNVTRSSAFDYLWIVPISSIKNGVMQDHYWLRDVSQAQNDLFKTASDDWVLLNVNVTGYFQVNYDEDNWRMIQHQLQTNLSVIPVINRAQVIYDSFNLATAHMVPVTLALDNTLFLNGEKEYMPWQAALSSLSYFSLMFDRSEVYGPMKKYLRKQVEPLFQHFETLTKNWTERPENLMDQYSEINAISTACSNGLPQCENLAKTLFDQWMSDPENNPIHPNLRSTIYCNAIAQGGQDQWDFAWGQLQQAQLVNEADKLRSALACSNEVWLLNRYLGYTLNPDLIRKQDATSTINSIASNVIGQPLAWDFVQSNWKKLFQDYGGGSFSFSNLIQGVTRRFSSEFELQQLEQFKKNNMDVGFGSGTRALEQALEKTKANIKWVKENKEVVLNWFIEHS
# PROTOCOL TEXT: APN inhibitory activity, spectrophotometry with L-leucine-p-nitroanilide
# Assay type: biochemical
# CONDITION CONTEXT: logarithm of IC50 in µmol/L; read-out: Log IC50 Experimental (converted)
What log10 IC50 was measured for each of the following?
The figures below represent log10 of IC50, where IC50 is stated in µM.

Qu. // query log10 IC50 value for entry "CC(=NNC(N)=S)c1ccc(NC(=O)CN2CCCCC2)cc1"
Ans. 3.19

Qu. Also check "CC(=NNC(N)=O)c1ccc(NC(=O)CN2CCCCC2)cc1"
Ans. 1.26

Qu. Also check "CC(=NNC(N)=S)c1ccc(NC(=O)CN2CCOCC2)cc1"
Ans. 0.83

Qu. Also check "CC(=NNC(N)=O)c1ccc(NC(=O)CN2CCOCC2)cc1"
Ans. 3.21

Qu. Also check "CC(=NNC(N)=S)c1ccccc1NC(=O)CN1CCCCCC1"
Ans. 2.23

Qu. Also check "CCCCN(CCCC)CC(=O)Nc1ccc(C(C)=NNC(N)=S)cc1"
Ans. 3.23

Qu. Also check "CC(=NNC(N)=S)c1ccc(NC(=O)CN2CCCC2)cc1"
Ans. 1.55

Qu. Also check "CC(=NNC(N)=S)c1ccc(NC(=O)CN2CCCCCC2)cc1"
Ans. 1.64

Qu. Also check "CCN(CC)CC(=O)Nc1ccc(C(C)=O)cc1"
Ans. 2.56

Qu. Also check "CCCN(CCC)CC(=O)Nc1ccc(C(C)=NNC(N)=S)cc1"
Ans. 3.10
